Molecular target: T1, human prolactin receptor (PRLR) (human, UniProt P16471 25-622)
T1 sequence: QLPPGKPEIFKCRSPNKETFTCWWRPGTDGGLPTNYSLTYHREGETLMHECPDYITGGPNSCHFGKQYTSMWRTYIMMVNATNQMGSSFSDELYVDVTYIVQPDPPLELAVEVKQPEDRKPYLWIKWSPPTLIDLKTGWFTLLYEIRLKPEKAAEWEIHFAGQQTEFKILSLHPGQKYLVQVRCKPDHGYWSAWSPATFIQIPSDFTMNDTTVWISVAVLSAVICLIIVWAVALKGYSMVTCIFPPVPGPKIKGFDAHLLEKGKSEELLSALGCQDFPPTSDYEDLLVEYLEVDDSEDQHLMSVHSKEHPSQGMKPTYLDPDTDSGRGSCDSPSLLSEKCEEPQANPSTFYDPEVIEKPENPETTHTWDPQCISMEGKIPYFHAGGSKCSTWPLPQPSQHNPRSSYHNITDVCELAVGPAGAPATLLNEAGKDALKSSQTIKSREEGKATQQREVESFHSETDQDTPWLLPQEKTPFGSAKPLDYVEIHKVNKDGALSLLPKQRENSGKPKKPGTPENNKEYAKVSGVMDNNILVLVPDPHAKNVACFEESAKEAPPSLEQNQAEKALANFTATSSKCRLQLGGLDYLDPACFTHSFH
Assay: cell-based or functional assay
readout: IC50, cell viability, 293/PRLR cells (nM)
Reply with just the number (in nM).

Would you mind telling me what IC50, cell viability, 293/PRLR cells value was observed for H1H6960N-DM1 (antibody, human IgG1, V domains shown, DM1 conjugated through SMCC linker; attachment residues not stated) VH: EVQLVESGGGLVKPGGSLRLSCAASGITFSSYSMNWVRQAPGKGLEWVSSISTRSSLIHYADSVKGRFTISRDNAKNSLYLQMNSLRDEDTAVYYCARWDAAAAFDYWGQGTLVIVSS VL: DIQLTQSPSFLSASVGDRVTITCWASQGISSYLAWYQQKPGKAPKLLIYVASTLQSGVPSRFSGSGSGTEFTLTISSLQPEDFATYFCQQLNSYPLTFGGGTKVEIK ?
0.38

Which value of IC50, cell viability, 293/PRLR cells has been reported for H1H6959N2-DM1 (antibody, human IgG1, V domains shown, DM1 conjugated through SMCC linker; attachment residues not stated) VH: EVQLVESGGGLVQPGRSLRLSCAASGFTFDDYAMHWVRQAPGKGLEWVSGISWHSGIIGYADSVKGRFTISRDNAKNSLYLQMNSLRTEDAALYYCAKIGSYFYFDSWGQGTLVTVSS VL: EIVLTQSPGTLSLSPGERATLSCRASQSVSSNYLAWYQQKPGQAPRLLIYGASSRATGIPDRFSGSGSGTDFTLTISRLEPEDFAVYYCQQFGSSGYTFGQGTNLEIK in the records?
4.82

Could you tell me which IC50, cell viability, 293/PRLR cells is on file for H1H6958N2-DM1 (antibody, human IgG1, V domains shown, DM1 conjugated through SMCC linker; attachment residues not stated) VH: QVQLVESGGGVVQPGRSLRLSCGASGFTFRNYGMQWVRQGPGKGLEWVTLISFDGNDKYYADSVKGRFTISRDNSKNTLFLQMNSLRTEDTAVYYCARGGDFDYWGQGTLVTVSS VL: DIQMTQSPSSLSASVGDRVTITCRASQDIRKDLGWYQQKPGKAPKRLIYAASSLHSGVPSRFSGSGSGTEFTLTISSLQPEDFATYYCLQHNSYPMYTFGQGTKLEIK ?
0.1

Which IC50, cell viability, 293/PRLR cells is listed for H1H6953N-DM1 (antibody, human IgG1, V domains shown, DM1 conjugated through SMCC linker; attachment residues not stated) VH: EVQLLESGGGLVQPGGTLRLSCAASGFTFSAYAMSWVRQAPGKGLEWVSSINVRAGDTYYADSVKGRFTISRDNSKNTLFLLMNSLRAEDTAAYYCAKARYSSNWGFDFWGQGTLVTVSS VL: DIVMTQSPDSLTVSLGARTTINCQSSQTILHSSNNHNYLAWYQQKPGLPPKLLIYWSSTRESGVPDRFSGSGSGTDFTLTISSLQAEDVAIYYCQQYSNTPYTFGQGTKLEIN ?
0.28
